Hey, just so you know, these numbers are from paper PMC12015663.

system: NCI-H1838; assay: CellTiter-Glo cell viability assay, NCI-H1838; conditions: Homo sapiens, NCI-H1838, 72 h, read-out: Proliferation EC50

- compound: "CCCS(=O)(=O)Nc1ccc(F)c(C(=O)c2c[nH]c3ncc(-c4ccc(Cl)cc4)cc23)c1F [Vemurafenib]"
  EC50: "> 10 µM"
- compound: "C[C@@H](NC(=O)c1ncnc(N)c1Cl)c1ncc(C(=O)Nc2cc(C(F)(F)F)c(Cl)cn2)s1 [Tovorafenib]"
  EC50: "> 10 µM"

* * *

assay: PK parameters in human; assay type: in vivo; conditions: in vivo, 600 mg, QW, calculated from weekly AUC0-168 divided by 7, read-out: Daily AUC0-24
parameter measured: AUC(0-t)

- molecule: "C[C@@H](NC(=O)c1ncnc(N)c1Cl)c1ncc(C(=O)Nc2cc(C(F)(F)F)c(Cl)cn2)s1 [Tovorafenib]"
  parameter measured: "AUC(0-t)"
  result: "47600 ng·h/mL"

* * *

The following compounds are shown together with reported pEC50 values.
test system: A375; test: CellTiter-Glo cell viability assay, A375; conditions: Homo sapiens, A-375, 72 h, read-out: Proliferation EC50
pEC50: −log10 of the molar value.
parameter measured: pEC50

- chem smiles: "CCCS(=O)(=O)Nc1ccc(F)c(C(=O)c2c[nH]c3ncc(-c4ccc(Cl)cc4)cc23)c1F"
  target system: "A375"
  parameter measured: "pEC50"
  result: 7.05
- chem smiles: "C[C@@H](NC(=O)c1ncnc(N)c1Cl)c1ncc(C(=O)Nc2cc(C(F)(F)F)c(Cl)cn2)s1"
  target system: "A375"
  parameter measured: "pEC50"
  result: 6.21

* * *

test system: NCI-H1838; assay: CellTiter-Glo cell viability assay, NCI-H1838; conditions: read-out: Proliferation EC50; NCI-H1838; CTG 72 hours after treatment; n = 1; repeated application of tovorafenib

- chem smiles: "N#Cc1c(Oc2ccc(F)c(NC(=O)Cc3cccc(C(F)(F)F)c3)c2)ccc2nc(NC(=O)C3CC3)sc12"
  EC50 [µM]: 3.3

* * *

Entries and their measured pEC50 follow.
system: pERK in sNF96.2 (NF1-LOF); test: pERK modulation in vitro, MSD ELISA, sNF96.2; conditions: SNF96.2, 1 h, read-out: pERK EC50
pEC50: −log10 of the molar value.

- chem smiles: "CCCS(=O)(=O)Nc1ccc(F)c(C(=O)c2c[nH]c3ncc(-c4ccc(Cl)cc4)cc23)c1F"
  inequality sign: "<"
  pEC50: 5.00
- chem smiles: "C[C@@H](NC(=O)c1ncnc(N)c1Cl)c1ncc(C(=O)Nc2cc(C(F)(F)F)c(Cl)cn2)s1"
  inequality sign: "="
  pEC50: 5.80

* * *

molecular target: ARAF (Homo sapiens, UniProt P10398); assay: Time-resolved fluorescence energy transfer binding assay (KINETICfinder); details: partial length active recombinant human ARAF at 5 nmol/L; 60 minutes, room temperature; singlicate
Sequence (P10398 310-570 limits assumed): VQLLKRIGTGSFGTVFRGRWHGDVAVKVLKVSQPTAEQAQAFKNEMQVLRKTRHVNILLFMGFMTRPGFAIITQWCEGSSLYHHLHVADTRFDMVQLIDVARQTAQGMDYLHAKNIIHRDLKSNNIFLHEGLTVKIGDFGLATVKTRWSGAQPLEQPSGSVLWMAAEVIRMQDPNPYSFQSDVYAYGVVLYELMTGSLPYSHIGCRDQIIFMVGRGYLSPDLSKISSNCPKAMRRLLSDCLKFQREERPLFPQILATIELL
pIC50: −log10 of the molar value.

- chem smiles: "C[C@@H](NC(=O)c1ncnc(N)c1Cl)c1ncc(C(=O)Nc2cc(C(F)(F)F)c(Cl)cn2)s1"
  pIC50: 7.26
- chem smiles: "N#Cc1c(Oc2ccc(F)c(NC(=O)Cc3cccc(C(F)(F)F)c3)c2)ccc2nc(NC(=O)C3CC3)sc12"
  pIC50: 6.67
